Source: ChEMBL document CHEMBL4311943

- measurement description: AUClast in patient with advanced solid tumor at 40 mg, po administered once daily measured on day 15
- Type: ADME, organism-based
- Set-up: dose 40 mg, time 0 - last, route oral
- assay context: human, in vivo
quantity: AUC(0-t)
Respond with a number, then the unit of measure.

Lookup: Query (molecule): CS(=O)(=O)c1ccc(Oc2cc(F)cc(C#N)c2)c2c1[C@H](O)[C@H](F)[C@@H]2F ; field requested: AUC(0-t)
Found: 7100 ng·h/mL

###

- test target: Endothelial PAS domain-containing protein 1 (Homo sapiens)
- Sequence (Q99814 whole entry, the tested form may be a part): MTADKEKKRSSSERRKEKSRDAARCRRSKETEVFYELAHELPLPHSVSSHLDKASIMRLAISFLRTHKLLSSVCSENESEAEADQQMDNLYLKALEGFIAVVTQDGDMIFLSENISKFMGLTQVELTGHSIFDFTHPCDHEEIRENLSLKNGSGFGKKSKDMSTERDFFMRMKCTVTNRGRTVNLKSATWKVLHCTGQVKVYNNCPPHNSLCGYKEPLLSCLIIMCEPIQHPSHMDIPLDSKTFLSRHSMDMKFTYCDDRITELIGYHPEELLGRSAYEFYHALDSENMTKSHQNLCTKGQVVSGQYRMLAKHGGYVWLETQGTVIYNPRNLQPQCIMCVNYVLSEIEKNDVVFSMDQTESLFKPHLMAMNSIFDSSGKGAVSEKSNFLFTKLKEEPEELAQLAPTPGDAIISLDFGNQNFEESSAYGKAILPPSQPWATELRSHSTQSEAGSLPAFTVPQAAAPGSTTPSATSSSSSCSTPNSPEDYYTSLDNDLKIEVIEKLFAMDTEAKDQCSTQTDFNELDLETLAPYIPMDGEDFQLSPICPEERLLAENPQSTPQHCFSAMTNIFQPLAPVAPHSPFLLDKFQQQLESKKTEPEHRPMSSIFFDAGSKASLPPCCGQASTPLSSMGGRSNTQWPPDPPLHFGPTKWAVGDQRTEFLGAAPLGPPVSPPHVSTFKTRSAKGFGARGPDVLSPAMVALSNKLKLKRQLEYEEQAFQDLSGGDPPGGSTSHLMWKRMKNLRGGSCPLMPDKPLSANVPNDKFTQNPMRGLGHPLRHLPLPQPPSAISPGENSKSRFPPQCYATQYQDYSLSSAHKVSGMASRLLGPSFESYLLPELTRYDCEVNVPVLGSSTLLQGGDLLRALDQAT
quantity: IC50
Respond with a number, then the unit of measure.

Lookup: # value lookup — system Endothelial PAS domain-containing protein 1 (Homo sapiens), readout IC50, item CS(=O)(=O)c1ccc(Oc2cc(F)cc(C#N)c2)c2c1[C@H](O)C(F)(F)[C@@H]2F
Found: 9 nM

###

- measurement description: Volume of distribution at steady state in CD-1 mouse at 3 mg/kg, iv by UPLC-MS analysis
- Assay type: ADME, organism-based
- assay context: in vivo, read-out: Vdss
quantity: Vd (L/kg)
Provide the reading as a plain figure in L/kg.

Lookup: Query (compound): CS(=O)(=O)c1ccc(Oc2cc(F)cc(C#N)c2)c2c1[C@H](O)[C@H](F)[C@@H]2F ; field requested: Vd
Found: 4.9

###

- measurement description: Half life in patient with advanced solid tumor at 240 mg, po administered once daily measured on day 15
- Type: ADME, organism-based
- assay context: human, in vivo
quantity: half-life (h)
Provide the reading as a plain figure in h.

Lookup: Query (molecule): CS(=O)(=O)c1ccc(Oc2cc(F)cc(C#N)c2)c2c1[C@H](O)[C@H](F)[C@@H]2F ; field requested: half-life
Found: 14.1

###

- measurement description: Plasma concentration in patient with advanced solid tumor at 20 mg, po administered once daily measured on day 15 after 24 hrs
- Assay type: ADME, organism-based
- assay context: human
quantity: concentration at 24 h (ng/mL)
Provide the reading as a plain figure in ng/mL.

Lookup: Query (compound): CS(=O)(=O)c1ccc(Oc2cc(F)cc(C#N)c2)c2c1[C@H](O)[C@H](F)[C@@H]2F ; field requested: concentration at 24 h
Found: 60

###

- measurement description: Drug level in plasma of SCID Beige mouse xenografted with human 786-O cells at 3 mg/kg, po administered twice daily via gavage for 3 days measured 12 hrs post-last dose
- Type: ADME, organism-based
quantity: concentration at 12 h (ng/mL)
Provide the reading as a plain figure in ng/mL.

Lookup: Query (compound): CS(=O)(=O)c1ccc(Oc2cc(F)cc(C#N)c2)c2c1[C@H](O)[C@H](F)[C@@H]2F ; field requested: concentration at 12 h
Found: 59

###

- measurement description: Drug level in plasma of SCID Beige mouse xenografted with human 786-O cells at 10 mg/kg, po administered twice daily via gavage for 3 days measured 12 hrs post-last dose
- Type: ADME, organism-based
quantity: concentration at 12 h (ng/mL)
Provide the reading as a plain figure in ng/mL.

Lookup: Query (compound): CS(=O)(=O)c1ccc(Oc2cc(F)cc(C#N)c2)c2c1[C@H](O)C(F)(F)C2 ; field requested: concentration at 12 h
Found: 260

###

- measurement description: Half life in patient with advanced solid tumor at 160 mg, po administered once daily measured on day 15
- Format: ADME, organism-based
- assay context: human, in vivo
quantity: half-life (h)
Provide the reading as a plain figure in h.

Lookup: Query (compound): CS(=O)(=O)c1ccc(Oc2cc(F)cc(C#N)c2)c2c1[C@H](O)[C@H](F)[C@@H]2F ; field requested: half-life
Found: 12.2

###

- measurement description: Clearance in Sprague-Dawley rat at 1 mg/kg, iv by UPLC-MS analysis
- Type: ADME, organism-based
- assay context: in vivo
quantity: clearance

Lookup: Query (compound): CS(=O)(=O)c1ccc(Oc2cc(F)cc(C#N)c2)c2c1[C@H](O)[C@H](F)[C@@H]2F [BELZUTIFAN] ; field requested: clearance
Found: 19 mL/min/kg

###

- measurement description: Half life in CD-1 mouse at 3 mg/kg, iv by UPLC-MS analysis
- Type: ADME, organism-based
- assay context: in vivo
quantity: half-life

Lookup: Query (compound): CS(=O)(=O)c1ccc(Oc2cc(F)cc(C#N)c2)c2c1[C@H](O)[C@H](F)[C@@H]2F ; field requested: half-life
Found: 4 h

###

- measurement description: Cmin in patient with advanced solid tumor at 120 mg, po administered once daily measured on day 15 measured after 24 hrs
- Assay type: ADME, organism-based
- assay context: human, in vivo, read-out: Cmin
quantity: concentration at 24 h (µg/mL)
Provide the reading as a plain figure in µg/mL.

Lookup: Query (compound): CS(=O)(=O)c1ccc(Oc2cc(F)cc(C#N)c2)c2c1[C@H](O)[C@H](F)[C@@H]2F ; field requested: concentration at 24 h
Found: 0.5

###

- measurement description: Plasma concentration in patient with advanced solid tumor at 120 mg, po administered once daily measured on day 15 after 24 hrs
- Format: ADME, organism-based
- assay context: human
quantity: concentration at 24 h
Respond with a number, then the unit of measure.

Lookup: Query (molecule): CS(=O)(=O)c1ccc(Oc2cc(F)cc(C#N)c2)c2c1[C@H](O)[C@H](F)[C@@H]2F [BELZUTIFAN] ; field requested: concentration at 24 h
Found: 710 ng/mL

###

- measurement description: AUClast in patient with advanced solid tumor at 120 mg, po administered once daily measured on day 15
- Type: ADME, organism-based
- Set-up: dose 120 mg, route oral, time 0 - last
- assay context: human, in vivo
quantity: AUC(0-t) (ng·h/mL)
Provide the reading as a plain figure in ng·h/mL.

Lookup: Query (compound): CS(=O)(=O)c1ccc(Oc2cc(F)cc(C#N)c2)c2c1[C@H](O)[C@H](F)[C@@H]2F ; field requested: AUC(0-t)
Found: 25900

###

- measurement description: Cmax in patient with advanced solid tumor at 20 mg, po administered once daily measured on day 15
- Assay type: ADME, organism-based
- Design: dose 20 mg, route oral
- assay context: human, in vivo
quantity: Cmax (µg/mL)
Provide the reading as a plain figure in µg/mL.

Lookup: Query (compound): CS(=O)(=O)c1ccc(Oc2cc(F)cc(C#N)c2)c2c1[C@H](O)[C@H](F)[C@@H]2F ; field requested: Cmax
Found: 0.2

###

- measurement description: Cmax in patient with advanced solid tumor at 240 mg, po administered once daily measured on day 15
- Format: ADME, organism-based
- Design: dose 240 mg, route oral
- assay context: human, in vivo
quantity: Cmax
Respond with a number, then the unit of measure.

Lookup: Query (compound): CS(=O)(=O)c1ccc(Oc2cc(F)cc(C#N)c2)c2c1[C@H](O)[C@H](F)[C@@H]2F ; field requested: Cmax
Found: 2700 ng/mL

###

- measurement description: Thermodynamic aqueous solubility of the compound at pH 7.4
- Assay type: physicochemical
- assay context: buffer, read-out: Therm_solubility
quantity: solubility thermodynamic (µg/mL)
Provide the reading as a plain figure in µg/mL.

Lookup: Query (molecule): CS(=O)(=O)c1ccc(Oc2cc(F)cc(C#N)c2)c2c1[C@H](O)C(F)(F)C2 ; field requested: solubility thermodynamic
Found: 15

###

- measurement description: Cmin in patient with advanced solid tumor at 800 mg, po administered twice daily measured on day 15 measured after 12 hrs
- assay context: human, in vivo
quantity: concentration at 12 h
Respond with a number, then the unit of measure.

Lookup: Query (compound): CS(=O)(=O)c1ccc(Oc2cc(F)cc(C#N)c2)c2c1[C@H](O)C(F)(F)C2 ; field requested: concentration at 12 h
Found: 860 ng/mL

###

- test target: MRP2 (ABCC2) (Homo sapiens, UniProt Q92887)
- Sequence (Q92887 whole entry): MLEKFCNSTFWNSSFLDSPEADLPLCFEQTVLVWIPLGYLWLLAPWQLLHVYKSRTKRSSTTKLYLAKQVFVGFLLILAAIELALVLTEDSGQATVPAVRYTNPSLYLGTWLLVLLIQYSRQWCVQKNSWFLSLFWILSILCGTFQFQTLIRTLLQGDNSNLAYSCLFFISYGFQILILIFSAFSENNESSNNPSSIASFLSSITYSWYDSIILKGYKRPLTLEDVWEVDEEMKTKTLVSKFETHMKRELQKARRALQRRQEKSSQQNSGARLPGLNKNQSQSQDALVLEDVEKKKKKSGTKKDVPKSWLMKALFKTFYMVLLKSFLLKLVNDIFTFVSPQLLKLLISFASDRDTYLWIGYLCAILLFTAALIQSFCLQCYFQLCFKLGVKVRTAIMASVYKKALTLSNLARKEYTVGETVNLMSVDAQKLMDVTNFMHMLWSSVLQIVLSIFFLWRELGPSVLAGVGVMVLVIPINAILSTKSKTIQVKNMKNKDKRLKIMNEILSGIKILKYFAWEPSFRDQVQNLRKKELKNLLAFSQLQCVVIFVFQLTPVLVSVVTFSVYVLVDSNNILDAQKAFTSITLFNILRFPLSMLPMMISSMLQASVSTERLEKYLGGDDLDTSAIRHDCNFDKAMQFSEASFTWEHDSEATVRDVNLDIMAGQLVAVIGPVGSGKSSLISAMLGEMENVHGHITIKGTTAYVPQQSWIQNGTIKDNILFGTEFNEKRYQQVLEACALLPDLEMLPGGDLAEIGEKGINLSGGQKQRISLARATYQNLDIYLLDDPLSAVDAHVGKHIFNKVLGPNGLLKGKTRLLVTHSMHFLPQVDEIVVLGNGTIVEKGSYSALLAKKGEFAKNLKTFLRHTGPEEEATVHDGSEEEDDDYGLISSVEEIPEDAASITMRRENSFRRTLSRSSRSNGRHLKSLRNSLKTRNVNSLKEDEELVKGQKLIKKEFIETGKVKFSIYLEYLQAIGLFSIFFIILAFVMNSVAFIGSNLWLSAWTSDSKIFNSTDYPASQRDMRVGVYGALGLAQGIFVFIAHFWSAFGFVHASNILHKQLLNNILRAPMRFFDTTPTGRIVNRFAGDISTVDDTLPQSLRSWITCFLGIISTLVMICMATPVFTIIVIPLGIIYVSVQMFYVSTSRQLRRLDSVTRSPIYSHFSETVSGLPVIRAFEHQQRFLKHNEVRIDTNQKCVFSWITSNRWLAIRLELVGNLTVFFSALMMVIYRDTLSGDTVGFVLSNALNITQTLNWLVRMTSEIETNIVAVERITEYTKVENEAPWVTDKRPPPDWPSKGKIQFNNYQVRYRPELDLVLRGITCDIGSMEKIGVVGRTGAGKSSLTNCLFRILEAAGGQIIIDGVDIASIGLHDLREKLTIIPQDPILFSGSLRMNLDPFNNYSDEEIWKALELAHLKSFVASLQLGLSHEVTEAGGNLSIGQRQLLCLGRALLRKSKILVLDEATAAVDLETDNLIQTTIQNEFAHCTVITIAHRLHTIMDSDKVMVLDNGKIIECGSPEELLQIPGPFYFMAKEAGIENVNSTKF
- measurement description: Substrate activity at human MRP2 expressed in Sf9 membrane vesicles assessed as Km
- Assay type: ADME
- assay context: Sf9 membrane vesicles expressing human MRP2
quantity: Km (µM)
Provide the reading as a plain figure in µM.

Lookup: Query (compound): CS(=O)(=O)c1ccc(Oc2cc(F)cc(C#N)c2)c2c1[C@H](O[C@@H]1O[C@H](C(=O)O)[C@@H](O)[C@H](O)[C@H]1O)C(F)(F)C2 ; field requested: Km
Found: 97

###

- test target: BCRP (ABCG2) (Homo sapiens, UniProt Q9UNQ0)
- Sequence (Q9UNQ0 whole entry): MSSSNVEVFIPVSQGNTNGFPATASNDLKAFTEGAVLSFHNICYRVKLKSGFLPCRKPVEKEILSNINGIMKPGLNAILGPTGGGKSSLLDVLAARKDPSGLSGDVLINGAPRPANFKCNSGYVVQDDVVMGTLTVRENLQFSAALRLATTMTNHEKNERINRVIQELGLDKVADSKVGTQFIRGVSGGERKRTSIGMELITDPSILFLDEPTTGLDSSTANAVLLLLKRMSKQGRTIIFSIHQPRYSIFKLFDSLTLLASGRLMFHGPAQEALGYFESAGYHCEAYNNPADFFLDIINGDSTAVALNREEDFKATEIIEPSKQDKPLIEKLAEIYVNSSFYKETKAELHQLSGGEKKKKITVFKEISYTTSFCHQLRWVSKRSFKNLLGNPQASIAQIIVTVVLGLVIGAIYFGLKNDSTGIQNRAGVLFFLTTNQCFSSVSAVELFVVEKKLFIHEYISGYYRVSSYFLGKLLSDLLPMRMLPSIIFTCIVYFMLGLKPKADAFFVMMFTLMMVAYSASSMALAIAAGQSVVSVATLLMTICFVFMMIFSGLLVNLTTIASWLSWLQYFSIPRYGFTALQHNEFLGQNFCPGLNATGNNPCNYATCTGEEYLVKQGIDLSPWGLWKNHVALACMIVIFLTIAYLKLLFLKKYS
- measurement description: Substrate activity at BCRP (unknown origin) expressed in MDCK2 cells assessed as efflux ratio of permeability at up to 300 uM
- Format: ADME, cell-based
quantity: efflux ratio

Lookup: # value lookup — system BCRP (ABCG2) (Homo sapiens, UniProt Q9UNQ0), readout efflux ratio, item CS(=O)(=O)c1ccc(Oc2cc(F)cc(C#N)c2)c2c1[C@H](O[C@@H]1O[C@H](C(=O)O)[C@@H](O)[C@H](O)[C@H]1O)C(F)(F)C2
Found: < 2
